# Test system: Plasmodium berghei
# procedure.summary: Antimalarial activity in Plasmodium berghei infected mice (Mus musculus) after subcutaneous 320 mg/kg dose
# Type: functional
Binary classification by No. of cured mice, with 4 as an inclusive lower bound for Satisfied; all other cases are Not satisfied.

>  <molecule>
O=C1CC(c2ccc(C(F)(F)F)cc2)Cc2nc3ccc(Cl)cc3c(O)c21 (centres undefined)

>  <category.label>
Satisfied

$$$$

Determine whether this molecule has No. of cured mice no lower than 4: CN(C)CCC/N=C1\CC(c2ccc(C(F)(F)F)cc2)Cc2nc3ccc(Br)cc3c(O)c21 (centres undefined)
Satisfied

Determine whether this molecule has No. of cured mice no lower than 4: CCCCN(CCCC)CC/N=C1\CC(c2cccc(C(F)(F)F)c2)Cc2c1c(=O)c1cc(Cl)ccc1n2O (centres undefined)
Satisfied

----------
# System: Plasmodium berghei
# procedure.summary: Antimalarial activity was measured against mice (Mus musculus) infected with Plasmodium berghei by subcutaneous administration of 640 mg/kg dose
# Assay type: organism-based
# Set-up: dose 640 mg/kg, route subcutaneous
# condition.set: in vivo, sc
readout.kind: No. of toxic deaths
Give bare numbers.

>  <molecule>
CCCCNC(CC)C/N=C1\CC(c2ccc(C(F)(F)F)cc2)Cc2c1c(=O)c1cc(Cl)ccc1n2O (stereo not given)

>  <No. of toxic deaths>
1

$$$$
>  <molecule>
CN(C)CCC/N=C1\CC2(CCCCC2)Cc2c1c(=O)c1cc(Cl)ccc1n2O

>  <No. of toxic deaths>
5

$$$$
>  <molecule>
O=c1c2c(n(O)c3ccc(Cl)cc13)CC(c1cccc(C(F)(F)F)c1)C/C2=N\CCCCCN1CCCC1 (stereo not given)

>  <No. of toxic deaths>
5

$$$$
>  <molecule>
O=C(O)c1ccc(C2CC(=O)c3c(n(O)c4ccc(Cl)cc4c3=O)C2)cc1 (stereo not given)

>  <No. of toxic deaths>
4

$$$$

Next, consider the following molecule.
// fetch No. of toxic deaths; item: CCCC/N=C1\CC(c2ccc(Cl)c(Cl)c2)Cc2nc3ccc(Cl)cc3c(O)c21 (stereo not given) ; system: Plasmodium berghei
1

----------
# Test system: Plasmodium berghei
# procedure.summary: Antimalarial activity in Plasmodium berghei infected mice (Mus musculus) after 80 mg/kg subcutaneous dose
# Type: functional
Task for the reader: assign each of the following compounds its reported Delta mean survival time.
Numbers only.

>  <compound>
CC(C)C1CC(=O)c2c(n(O)c3ccc(Cl)cc3c2=O)C1 (stereo not given)

>  <Delta mean survival time>
1.7

$$$$
>  <compound>
Cc1ccc(C2CC(=O)c3c(n(O)c4ccc(Cl)cc4c3=O)C2)cc1 (stereo not given)

>  <Delta mean survival time>
2.8

$$$$
>  <compound>
CN(C)CCC/N=C1/c2c([nH]c3ccc(Cl)cc3c2=O)CC(c2ccc(Cl)c(Cl)c2)C1Cc1ccccc1 (stereo not given)

>  <Delta mean survival time>
0.7

$$$$
>  <compound>
Cc1ccc(C2C/C(=N\CCCN(C)C)c3c(nc4ccc(Cl)cc4c3O)C2)cc1 (stereo not given)

>  <Delta mean survival time>
1.4

$$$$
>  <compound>
O=c1c2c(n(O)c3ccc(Cl)cc13)CC(c1ccc(C(F)(F)F)cc1)C/C2=N\CCCN(CCO)CCO (stereo not given)

>  <Delta mean survival time>
9.5

$$$$

Respectfully, I request Delta mean survival time for each entry included below.
1. CCCC/N=C1\CC(c2ccc(C(F)(F)F)cc2)Cc2c1c(=O)c1cc(Cl)ccc1n2O (stereo not given)
2. CN(C)CCC/N=C1\CC(c2cccc(Br)c2)Cc2c1c(=O)c1cc(Cl)ccc1n2O (stereo not given)

1: 10.2; 2: 5.3

Respectfully, I request Delta mean survival time for each entry included below.
1. CN(C)CCC/N=C1\CC(c2ccccc2Cl)Cc2nc3ccc(Cl)cc3c(O)c21 (stereo not given)
2. O=C1c2c(nc3ccc(Cl)cc3c2O)CCC1c1ccccc1 (stereo not given)
3. COc1ccccc1C1CC(=O)c2c(n(O)c3ccc(Cl)cc3c2=O)C1 (stereo not given)

6.3
0
1.8

Data credit: ChEMBL document CHEMBL1126276
